# protocolNotes: Cytotoxicity against HEK293 cells assessed as inhibition of cell growth by MTT assay
# Type: toxicity, cell-based
# conditionInfo: human
Recorded IC50, one value per entry.

• COc1ccc(C(=O)CSc2nnc(OCc3cc(OC)c(OC)c(OC)c3)n2N)cc1 = > 100 µM
• COc1cc(Cc2nnc(SCC(=O)c3ccc(C)cc3)n2N)cc(OC)c1OC = > 100 µM
• COc1cc(-c2nnc(SCC(=O)c3ccc(C)cc3)n2N2C(=O)c3ccccc3C2=O)cc(OC)c1OC = > 100 µM
• COc1ccc(C(=O)CSc2nnc(Cc3cc(OC)c(OC)c(OC)c3)n2N)cc1 = > 100 µM

--- query ---
For the compound shown here, COc1cc(COc2nnc(SCC(=O)c3ccc(C)cc3)n2N)cc(OC)c1OC , give the reported IC50.
> 100 µM

----------
# Tested on: HCT-116
# protocolNotes: Antiproliferative activity against human HCT-116 cells assessed as inhibition of cell growth by MTT assay
# Assay type: functional, cell-based
outcomeMeasure: IC50 (µM)
Answer with a number only, understood to be in µM.

• COc1cc(Cc2nnc(SCC(=O)c3ccc(C)cc3)n2N)cc(OC)c1OC = 1.46

Tell me reported IC50 for COc1ccc(/C=C\c2cc(OC)c(OC)c(OC)c2)cc1O , tested with HCT-116.
1.1

Tell me reported IC50 for COc1ccc(C(=O)CSc2nnc(Cc3cc(OC)c(OC)c(OC)c3)n2N)cc1 , tested with HCT-116.
4

Tell me reported IC50 for COc1cc(COc2nnc(SCC(=O)c3ccc(C)cc3)n2N)cc(OC)c1OC , tested with HCT-116.
7.57
